# Tested on: MALME-3M melanoma
# METHOD_NOTES: NCI tumour cell line growth inhibition, 48 h
MEASUREMENT_NAME: TGI

Recorded TGI, per entry:
{"columns": ["COMPOUND", "TGI"],
 "data": [
  ["COC(=O)NC(=O)c1cn(C2OC(CO)C(O)C2O)c(=O)[nH]c1=O (stereo unspecified)", "> 100 µM"],
  ["CC(C)=CC1C[C@H](C2CC=C3C2(C)CCC2[C@@]3(C)C(=O)CC3[C@]2(C)C=CC(=O)[C@]3(C)CO)CO1 (stereo partly specified)", "16.8 µM"],
  ["CCOc1cccc(/C=N/N=C2\\C(=O)Nc3c(Cl)cc(Cl)cc32)c1O", "> 100 µM"],
  ["CC1(C)CC(C2=NCCO2)CC(C)(C)N1", "> 100 µM"]
]}

// sample C=C1C(=O)O[C@H]2[C@H]1CC/C(COC(=O)CSCSCC(=O)OC/C1=C/CC[C@@]3(C)O[C@H]3[C@H]3OC(=O)C(=C)[C@@H]3CC1)=C\CC[C@@]1(C)O[C@@H]21 , its TGI was 3.29 µM

Recorded result, O=c1[nH]nc(-c2ccccc2)n1Nc1ccccc1 , TGI: > 100 µM
